Tested on: 475296-252-R-J1-PDC spheroid viability;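 further: spheroids exposed to agents for seven days before readout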
Experiment: Anticancer human tumor 475296-252-R-J1-PDC patient-derived rectal carcinoma cell line growth inhibition [PI3K]
Details: second compound 0.1 µM; first compound 1 µM; hits give low values; spheroids with HUVEC and MSC
Let's look at some compounds and their measured viability, T/C.
value_type: viability, T/C (%)

| compound | u | quantitative_result |
| --- | --- | --- |
| C[C@@H](NC(=O)c1ncnc(N)c1Cl)c1ncc(C(=O)Nc2cc(C(F)(F)F)c(Cl)cn2)s1 + CC(Nc1ncnc2nc[nH]c12)c1cc2cccc(Cl)c2c(=O)n1-c1ccccc1 | % | 109 |
| CC(Cn1ccc(-c2ccc(C#N)c(Cl)c2)n1)NC(=O)c1cc(C(C)O)[nH]n1 (stereo unspecified) + CC(Nc1ccc2c(c1)OCCn1cc(N3C(=O)OCC3C(F)F)nc1-2)C(N)=O | % | 90.9 |
| Cn1nccc1Nc1nccc(-c2ccn(C(CO)c3ccc(Cl)c(F)c3)c(=O)c2)n1 (stereo unspecified) + Cc1nc(NC(=O)N2CCCC2C(N)=O)sc1-c1ccnc(C(C)(C)C(F)(F)F)c1 | % | 91.4 |
| C=CC(=O)N1CCN(c2nc(=O)n(-c3c(C)ccnc3C(C)C)c3nc(-c4c(O)cccc4F)c(F)cc23)C(C)C1 (stereo unspecified) + CC(Nc1ncnc2nc[nH]c12)c1cc2cccc(Cl)c2c(=O)n1-c1ccccc1 | % | 87.9 |
| Cn1ncc(Cl)c1-c1cc(C(=O)NC(CN)Cc2cccc(F)c2)sc1Cl (stereo unspecified) + CC(Nc1ccc2c(c1)OCCn1cc(N3C(=O)OCC3C(F)F)nc1-2)C(N)=O | % | 69.3 |
| CCCS(=O)(=O)Nc1ccc(F)c(C(=O)c2c[nH]c3ncc(-c4ccc(Cl)cc4)cc23)c1F + CC(Nc1ccc2c(c1)OCCn1cc(N3C(=O)OCC3C(F)F)nc1-2)C(N)=O | % | 84.5 |
| CC1(C)CCC(CN2CCN(c3ccc(C(=O)NS(=O)(=O)c4ccc(NCC5CCOCC5)c([N+](=O)[O-])c4)c(Oc4cnc5[nH]ccc5c4)c3)CC2)=C(c2ccc(Cl)cc2)C1 + CC(Nc1ncnc2nc[nH]c12)c1cc2cccc(Cl)c2c(=O)n1-c1ccccc1 | % | 99.7 |
| Cn1nccc1Nc1nccc(-c2ccn(C(CO)c3ccc(Cl)c(F)c3)c(=O)c2)n1 (stereo unspecified) + COc1c(OCCCN2CCOCC2)ccc2c3n(c(=NC(=O)c4cnc(N)nc4)nc12)CCN3 | % | 53.6 |
| CC(Cn1ccc(-c2ccc(C#N)c(Cl)c2)n1)NC(=O)c1cc(C(C)O)[nH]n1 (stereo unspecified) + CC(Nc1ncnc2nc[nH]c12)c1cc2cccc(Cl)c2c(=O)n1-c1ccccc1 | % | 89 |
| CCCS(=O)(=O)Nc1ccc(F)c(C(=O)c2c[nH]c3ncc(-c4ccc(Cl)cc4)cc23)c1F + CC(Nc1ncnc2nc[nH]c12)c1cc2cccc(Cl)c2c(=O)n1-c1ccccc1 | % | 90.6 |
| CCCS(=O)(=O)Nc1ccc(F)c(C(=O)c2c[nH]c3ncc(-c4ccc(Cl)cc4)cc23)c1F + Cc1nc(NC(=O)N2CCCC2C(N)=O)sc1-c1ccnc(C(C)(C)C(F)(F)F)c1 | % | 81.2 |
